FYI, the data here is from the supplement of paper PMC10126150.

Please provide measured switch fluorescence ratio for the entries that follow.
Test system: ATP;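 also: ATP exposure 15 min at 22 °C before imaging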
Experiment: switch fluorescence ratio, 500 uM ATP over buffer (Cy3 cluster intensity, sum of 5 cycles each) (fold (ratio)); higher = stronger signal-on switching upon ATP binding; sequences stand for … in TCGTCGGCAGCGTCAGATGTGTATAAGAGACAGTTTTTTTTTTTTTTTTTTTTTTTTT…TC
Settings: aptamer strand: ATP DNA aptamer (quencher-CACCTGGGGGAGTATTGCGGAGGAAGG + anchor), 100 nM annealed; ATP concentration: 500 uM

seq-text: TTTCGCTCTT
switch fluorescence ratio: 1.12

seq-text: ATATAGGGGC
switch fluorescence ratio: 1.02

seq-text: CCTGGGGCGG
switch fluorescence ratio: 1.07

# return switch fluorescence ratio for each item in the list
1. GTTTACTTTT
2. GGTGAGTCGG
3. AGGTAGGGGT
4. AAAAATTTTA
5. TGACGTTCAG
6. CTTTTTATTT
7. TGGTGGTTCT

1: 0.986; 2: 0.992; 3: 1.01; 4: 0.993; 5: 0.996; 6: 1.14; 7: 0.987

----------
Tested on: ATP;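 also: ATP exposure 15 min at 22 °C before imaging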
Assay: switch fluorescence ratio, 500 uM ATP over buffer (Cy3 cluster intensity, sum of 5 cycles each) (fold (ratio)); higher = stronger signal-on switching upon ATP binding; sequences stand for … in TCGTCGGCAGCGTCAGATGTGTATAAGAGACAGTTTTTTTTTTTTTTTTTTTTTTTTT…TC
Details: aptamer strand: ATP DNA aptamer (quencher-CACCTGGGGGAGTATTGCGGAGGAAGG + anchor), 100 nM annealed; ATP concentration: 500 uM
readout: switch fluorescence ratio
One number for each entry.

Below: 3 sequences and their reported switch fluorescence ratio.
seq-text: GTCCGGGTGG
assayed-target: ATP;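 also: ATP exposure 15 min at 22 °C before imaging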
readout: switch fluorescence ratio
result-number: 1.05
//
seq-text: CCCGATCATA
assayed-target: ATP;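 also: ATP exposure 15 min at 22 °C before imaging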
readout: switch fluorescence ratio
result-number: 1.02
//
seq-text: TTCCAGGGGG
assayed-target: ATP;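 also: ATP exposure 15 min at 22 °C before imaging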
readout: switch fluorescence ratio
result-number: 1.08

# return switch fluorescence ratio for each item in the list
1. GGTGCAGGTA
2. GGGTGTACGG
3. CATGTGTGAG
4. CGGTCGCAGT

1. 0.984
2. 1.04
3. 0.949
4. 1.02

# return switch fluorescence ratio for each item in the list
1. TTAAACCCGC
2. GATTACTTCA

1. 1.08
2. 1.06

Using the record for GGCAATCACC , report its switch fluorescence ratio.
1.4

----------
System: ATP;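 also: ATP exposure 15 min at 22 °C before imaging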
Assay: switch fluorescence ratio, 500 uM ATP over buffer (Cy3 cluster intensity, sum of 5 cycles each) (fold (ratio)); higher = stronger signal-on switching upon ATP binding; sequences stand for … in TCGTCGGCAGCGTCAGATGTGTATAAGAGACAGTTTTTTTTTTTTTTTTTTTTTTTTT…TC
Conditions: aptamer strand: ATP DNA aptamer (quencher-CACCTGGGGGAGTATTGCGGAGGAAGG + anchor), 100 nM annealed; ATP concentration: 500 uM
Output condition met for switch fluorescence ratio not less than 1; output condition not met otherwise.

For orientation, consider the following solved cases.
seq-text: TTTGCAGCTT
discrete-label: condition met
--
seq-text: TTAGGAGGGG
discrete-label: condition met
--
seq-text: GGGACGGAAC
discrete-label: condition met
--
seq-text: GCAGTAAAAC
discrete-label: condition met

Please tell me: is the sequence TGTATTTTTT at or over 1 in terms of switch fluorescence ratio?
condition met

What do you get for TCAATTTAGA ?
condition met

What do you get for ATAAAGATGG ?
condition not met

----------
Please provide measured switch fluorescence ratio for the entries that follow.
System: ATP;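 also: ATP exposure 15 min at 22 °C before imaging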
Test: switch fluorescence ratio, 500 uM ATP over buffer (Cy3 cluster intensity, sum of 5 cycles each) (fold (ratio)); higher = stronger signal-on switching upon ATP binding; sequences stand for … in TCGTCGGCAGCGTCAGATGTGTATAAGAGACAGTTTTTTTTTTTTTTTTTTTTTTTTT…TC
Conditions: aptamer strand: ATP DNA aptamer (quencher-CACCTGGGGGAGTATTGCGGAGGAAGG + anchor), 100 nM annealed; ATP concentration: 500 uM
Numbers only.

Below: 9 sequences and their reported switch fluorescence ratio.
seq-text: TAATTGTCTA
result-number: 1
//
seq-text: GCTGTTAGCA
result-number: 1.02
//
seq-text: AGTTATATGT
result-number: 0.985
//
seq-text: GGTGGGACAA
result-number: 0.966
//
seq-text: AACTTTACTC
result-number: 1.55
//
seq-text: ACGTTGTACT
result-number: 1.14
//
seq-text: TTCGGGCCGA
result-number: 0.998
//
seq-text: AGCTGCTTGC
result-number: 1.04
//
seq-text: GTTAGTACAG
result-number: 1.01

Using the record for TAAGGCGGGC , report its switch fluorescence ratio.
0.988

----------
Test system: ATP;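 also: ATP exposure 15 min at 22 °C before imaging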
Test: switch fluorescence ratio, 500 uM ATP over buffer (Cy3 cluster intensity, sum of 5 cycles each) (fold (ratio)); higher = stronger signal-on switching upon ATP binding; sequences stand for … in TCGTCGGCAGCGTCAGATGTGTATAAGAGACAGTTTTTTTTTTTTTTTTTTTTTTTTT…TC
Details: aptamer strand: ATP DNA aptamer (quencher-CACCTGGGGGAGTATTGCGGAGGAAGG + anchor), 100 nM annealed; ATP concentration: 500 uM
Please provide measured switch fluorescence ratio for the entries that follow.
Give bare numbers.

Below: 4 sequences and their reported switch fluorescence ratio.
seq-text: CAAAGGTTGG
assayed-target: ATP;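 also: ATP exposure 15 min at 22 °C before imaging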
switch fluorescence ratio: 1
--
seq-text: CTAATGTGTC
assayed-target: ATP;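 also: ATP exposure 15 min at 22 °C before imaging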
switch fluorescence ratio: 1.02
--
seq-text: AGAAGCGACA
assayed-target: ATP;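 also: ATP exposure 15 min at 22 °C before imaging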
switch fluorescence ratio: 0.994
--
seq-text: TGGGGGTAGT
assayed-target: ATP;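 also: ATP exposure 15 min at 22 °C before imaging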
switch fluorescence ratio: 0.99

# return switch fluorescence ratio for each item in the list
1. CGGGCCCTGA
2. AATGGCGGCA
3. TAGTGATGCG
4. TTGAGGGTTT
5. GGGTGCCGTG
6. GGTCCGGAGC
7. CGTAAATTAT
8. GGGAAGGGAG

1: 0.977; 2: 1.06; 3: 0.967; 4: 0.994; 5: 1.03; 6: 1.16; 7: 0.993; 8: 0.983

# return switch fluorescence ratio for each item in the list
1. TCTTAGGTGG
2. GTTCTTGTGT
3. AGTTTTGGCG
4. AGTATAGTAG
5. TTTGTTGTGT
6. ATGATTAAGG
7. ATTGTTATTT
8. GTTTGGCCTT

1.05
1.01
0.973
0.983
1.02
1.02
1.02
1.04

----------
System: ATP;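 also: ATP exposure 15 min at 22 °C before imaging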
Assay: switch fluorescence ratio, 500 uM ATP over buffer (Cy3 cluster intensity, sum of 5 cycles each) (fold (ratio)); higher = stronger signal-on switching upon ATP binding; sequences stand for … in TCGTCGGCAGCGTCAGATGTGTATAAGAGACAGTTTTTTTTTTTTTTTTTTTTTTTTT…TC
Settings: aptamer strand: ATP DNA aptamer (quencher-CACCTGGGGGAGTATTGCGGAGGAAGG + anchor), 100 nM annealed; ATP concentration: 500 uM
readout: switch fluorescence ratio
One number for each entry.

Below: 4 sequences and their reported switch fluorescence ratio.
seq-text: TTAGTAGGTC
result-number: 0.992

seq-text: GGGTATGCAA
result-number: 1

seq-text: AGGGCAGGTG
result-number: 2.65

seq-text: TTAAATTCGC
result-number: 0.999

# return switch fluorescence ratio for each item in the list
1. TGGGTTATTG
2. GGGATATCAG
3. AATACAGAGG

1. 0.998
2. 0.994
3. 1.01

# return switch fluorescence ratio for each item in the list
1. TTTCGTTTTG
2. CTTGGCGGGC
3. GTCAATTGGG
4. TTGATGTCCC
5. TTGGATACGG

[0.998, 1.01, 0.992, 1, 0.995]

# return switch fluorescence ratio for each item in the list
1. GGAGGGACTT
2. GGTCGGGGAG
3. CCACCCACAT
4. AGGGAATGTA

1. 1.39
2. 0.999
3. 1.48
4. 0.99

# return switch fluorescence ratio for each item in the list
1. AAGTTTAGGG
2. TGGGGACTTA

[0.996, 1.01]

# return switch fluorescence ratio for each item in the list
1. TAATTATCTT
2. AAGGAGCAGT

0.979
0.985

----------
Test system: ATP;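 also: ATP exposure 15 min at 22 °C before imaging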
Assay: switch fluorescence ratio, 500 uM ATP over buffer (Cy3 cluster intensity, sum of 5 cycles each) (fold (ratio)); higher = stronger signal-on switching upon ATP binding; sequences stand for … in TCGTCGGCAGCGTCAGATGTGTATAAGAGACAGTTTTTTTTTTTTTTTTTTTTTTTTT…TC
Details: aptamer strand: ATP DNA aptamer (quencher-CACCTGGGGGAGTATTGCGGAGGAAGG + anchor), 100 nM annealed; ATP concentration: 500 uM
Please provide measured switch fluorescence ratio for the entries that follow.
Numbers only.

Below: 3 sequences and their reported switch fluorescence ratio.
seq-text: GCAGGGGGAA
switch fluorescence ratio: 1.08

seq-text: GCAGCTGTTT
switch fluorescence ratio: 1.02

seq-text: TTTCGCGGGT
switch fluorescence ratio: 1.05

# return switch fluorescence ratio for each item in the list
1. ATCGATTGT
2. ACCTGATATA
3. CGTTTATCTG

1. 0.973
2. 1.03
3. 0.972

# return switch fluorescence ratio for each item in the list
1. TTATTTCATG
2. TACTTGGAAC
3. AAAAGAAAGG
4. GCGAATGCTG
5. GAGAGGGGAG

1: 0.984; 2: 1.04; 3: 0.985; 4: 1.01; 5: 0.983
